TARGET OR SYSTEM: human DGKα (Homo sapiens (Human))
Sequence (P23743 whole entry, looked up): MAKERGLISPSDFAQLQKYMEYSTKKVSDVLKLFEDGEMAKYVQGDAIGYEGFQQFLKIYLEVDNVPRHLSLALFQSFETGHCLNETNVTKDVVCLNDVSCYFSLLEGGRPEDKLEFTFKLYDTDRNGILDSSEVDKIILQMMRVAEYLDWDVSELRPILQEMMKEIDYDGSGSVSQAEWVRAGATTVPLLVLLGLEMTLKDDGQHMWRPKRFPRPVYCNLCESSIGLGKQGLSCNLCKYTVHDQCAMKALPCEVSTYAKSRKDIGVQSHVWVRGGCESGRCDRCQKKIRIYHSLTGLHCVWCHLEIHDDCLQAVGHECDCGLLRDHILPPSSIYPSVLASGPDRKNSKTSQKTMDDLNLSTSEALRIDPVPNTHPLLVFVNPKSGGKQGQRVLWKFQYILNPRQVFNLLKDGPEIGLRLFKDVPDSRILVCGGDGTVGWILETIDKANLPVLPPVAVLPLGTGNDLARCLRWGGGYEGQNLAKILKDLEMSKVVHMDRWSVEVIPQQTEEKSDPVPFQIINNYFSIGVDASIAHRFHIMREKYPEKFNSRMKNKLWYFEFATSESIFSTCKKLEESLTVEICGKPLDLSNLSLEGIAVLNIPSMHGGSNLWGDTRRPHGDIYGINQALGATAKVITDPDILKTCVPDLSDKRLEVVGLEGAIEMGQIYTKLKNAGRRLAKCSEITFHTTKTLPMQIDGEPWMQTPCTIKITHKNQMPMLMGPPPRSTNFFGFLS
TEST: DGKα ADPGLO assay (detergent/lipid micelle substrate)
Type: biochemical
PROTOCOL CONDITIONS: ADPGLO assay; read-out: DGK alpha ADPGLO IC50
pIC50: −log10 of the molar value.
Label true (1) when pIC50 >= 6; otherwise false (0).

Inquiry: Check this molecule for pIC50 at or above 6: CCC(c1ccc(OCc2nccs2)cc1)N1C[C@H](C)N(c2nc(=O)n(C)c3ccc(C#N)nc23)C[C@H]1CC (stereo partly drawn) [Example 347]
Reply text: true (1)

Inquiry: Please tell me: is the molecule CCC(c1ccc(OCC2CC2)cc1)N1C[C@H](C)N(c2nc(=O)n(C)c3ccc(C#N)nc23)C[C@H]1CC (stereo partly drawn) [Example 309] at or over 6 in terms of pIC50?
Reply text: true (1)

Inquiry: hey, is pIC50 for this one >= 6? [2H]C([2H])([2H])n1c(=O)nc(N2C[C@@H](CC)N(C(C)c3ccc(C(F)(F)F)cc3)C[C@@H]2C)c2nc(Cl)ccc21 (single isomer, unassigned) [Example 417]
Reply text: true (1)

Inquiry: Exam item: decide whether the reported pIC50 for CCC(c1ccc(C(F)(F)F)cc1)N1C[C@H](CC)N(c2nc(=O)[nH]c3ccc(C#N)nc23)C[C@H]1CC (stereo partly drawn) [Example 415] is at least 6.
Reply text: false (0)

---
Inquiry: Please check the record CC(c1ccc(CN2CCC(F)(F)CC2)cc1)N1C[C@H](C)N(c2nc(=O)n(C)c3ccc(C#N)nc23)C[C@H]1C (stereo partly drawn) [Example 391] and state if its pIC50 is at or above 6.
Reply text: false (0)

Data origin: patent US11584747B2
